- Test system: transient receptor potential cation channel C4 beta (TRPC4), mouse
- ASSAY PROTOCOL: activators of mouse TRPC4 channel, confirmation, cell-based, second round, Fluo4, HEK293 TRPC4beta/mu-opioid, 1 µM (AID 2461)
- ASSAY CONDITIONS: Fluo4 calcium fluorescence, at 1 µM
Activity calls are given as the source filed them.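 How the source made its calls: active means primary screen active and over 50% activation in each of two duplicate runs; inactive means the rest.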
Your response should consist of one outcome taken from 1 for active, 0 for inactive

Below, 3 molecules whose answers are already recorded.
>  <MOLECULE>
COc1cccc(C(=O)N(C)CC2CCN(CCc3cccc(C(F)(F)F)c3)CC2)c1

>  <LABEL>
1

$$$$
>  <MOLECULE>
CNC[C@H](CC1CCCCC1)NC[C@H](Cc1ccccc1)NCCC12CC3CC(CC(C3)C1)C2

>  <LABEL>
0

$$$$
>  <MOLECULE>
O=C(COc1ccc(Br)cc1CNC1CCCC1)Nc1ccccc1

>  <LABEL>
0

$$$$

Assay outcome for Cc1ccc(Cl)cc1NC(=O)CNCC(c1ccccc1)N(C)C (stereo not drawn) : what was it?
0

Assay outcome for `O=C(CCC1CCCC1)c1c(O)c2ccccc2oc1=O` : what was it?
0

Assay outcome for CC(=O)Nc1ccc(CN2CCCC(C(=O)c3cccc(C(F)(F)F)c3)C2)cc1 (stereo not drawn) : what was it?
0

Assay outcome for `CCn1c(N)[n+](CC(=O)Nc2ccc(SC(F)F)cc2)c2ccccc21` : what was it?
0

Assay outcome for `Cc1csc2c(N3CCN(C(=O)NC(C)(C)C)CC3)ncnc12` : what was it?
0

----------
- TEST TARGET: Potassium voltage-gated channel subfamily KQT member 1 (Homo sapiens)
- ASSAY PROTOCOL: KCNQ1 potassium channel potentiators, confirmation, FluxOR thallium flux, CHO cells, duplicates (AID 493007);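 on outcome: cells depolarized by a potassium plus thallium sulfate stimulus after compound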
- ASSAY CONDITIONS: KCNQ1 cell line, FluxOR thallium flux fluorescence, at 10 µM, % of reference activator effect, buffer zero
Active and inactive are the calls of the source.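 Rule for the calls: active = potentiation averaged over duplicate wells exceeding buffer-only control mean by more than 3 SD; inactive = the rest.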
Your response should consist of one outcome taken from yes (1) for active, no (0) for inactive

Below, 3 compounds whose answers are already recorded.
>  <COMPOUND>
CN1CCN(C(c2ccc(Cl)cc2)c2cc(Cl)c3cccnc3c2O)CC1 (stereo unspecified)

>  <LABEL>
no (0)

$$$$
>  <COMPOUND>
Cc1cccc(C(=O)O/N=C(\N)c2cccc([N+](=O)[O-])c2)c1

>  <LABEL>
no (0)

$$$$
>  <COMPOUND>
CCCN(CCC)Cc1c(C(=O)N/N=C/C(C)=C\c2ccco2)nnn1-c1nonc1N

>  <LABEL>
no (0)

$$$$

Assay outcome for `CCOC(=O)c1oc2ccc(S(=O)(=O)n3nc(-c4ccc(OC)cc4)cc3N)cc2c1C` : what was it?
no (0)

Assay outcome for `CC1(C)N=C(N)NC(Nc2cccc(Br)c2)=N1` : what was it?
no (0)

Assay outcome for `Cc1[nH]n(-c2ccccc2)c(=O)c1N=Nc1nccs1` : what was it?
yes (1)

----------
- ASSAY PROTOCOL: thallium flux activation in parental CHO cells, counter-screen for KCNQ1 potentiator project (AID 493006);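 on activation: fluorescence ratio of max minus min over baseline after K+ and Tl+ depolarization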
- ASSAY CONDITIONS: parental CHO-K1 cells, FluxOR thallium flux, at 10 µM
The source made the active and inactive calls.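 Rule for the calls: active = duplicate-averaged activation above buffer control mean plus 5 SD of those controls; inactive = the rest.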
Your response should consist of one outcome taken from active, inactive

>  <COMPOUND>
COc1ccc(OC)c(/C=C2\SC(=S)N(NS(=O)(=O)c3ccc(C)cc3)C2=O)c1

>  <LABEL>
active

$$$$
>  <COMPOUND>
CN(C)CCCNc1nc2sc3c(c2c(=O)n1CCc1ccccc1)CCCCC3

>  <LABEL>
inactive

$$$$
>  <COMPOUND>
Cc1cccc(C(=O)NC(=S)NNC(=O)COc2c(C)cccc2C)c1

>  <LABEL>
inactive

$$$$
>  <COMPOUND>
CCOC(=O)c1c(N2C(=O)Nc3ccccc3N2O)n[nH]c1-c1cccc(Cl)c1

>  <LABEL>
inactive

$$$$
>  <COMPOUND>
Cc1[nH]n(-c2ccccc2)c(=O)c1N=Nc1nccs1

>  <LABEL>
active

$$$$

Assay outcome for `O=c1c2ccccc2sn1-c1ccccc1` : what was it?
active

Assay outcome for `O=C(N/N=C/c1ccccn1)c1cc(-c2ccc(Br)cc2)nc2ccccc12` : what was it?
active

Assay outcome for `CC(C)CC(=O)O/N=C1\C(=O)N(c2ccccc2)c2ccccc21` : what was it?
inactive

Assay outcome for O=C1OCCC1Sc1nc2ccccc2c(=O)n1Cc1ccc(F)cc1 (stereo unspecified) : what was it?
active

Assay outcome for `COc1ccc(C(=O)CC(=O)C(=O)Nc2ccccc2Cl)cc1` : what was it?
active

Assay outcome for `O=C(CSc1nc2ccccc2[nH]1)N/N=C/c1ccncc1` : what was it?
inactive

----------
- TEST TARGET: Potassium voltage-gated channel subfamily KQT member 2 (Rattus norvegicus)
- ASSAY PROTOCOL: rat KCNQ2 channel potentiation, selectivity assay for KCNQ1 potentiator project, KCNQ2-CHO-K1 cells (AID 493009);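 further: assay conditions were tuned for KCNQ1 rather than KCNQ2 modulators; signal is max minus min fluorescence divided by baseline after thallium stimulus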
- ASSAY CONDITIONS: FluxOR thallium flux fluorescence, at 10 µM, scaled: buffer 0, activator control 100
Activity calls are given as the source filed them.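 The calls were made as follows: active = mean duplicate potentiation above the buffer control mean plus 5 SD of buffer wells; inactive = the rest.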
Your response should consist of one outcome taken from active, inactive

Below, 5 molecules whose answers are already recorded.
>  <MOLECULE>
CCOc1ccc2nc(Nc3nc4ccc(NC(C)=O)cc4s3)sc2c1

>  <TEST TARGET>
Potassium voltage-gated channel subfamily KQT member 2 (Rattus norvegicus)

>  <LABEL>
inactive

$$$$
>  <MOLECULE>
CC(=O)SCC(=O)N=c1sc2cc(F)ccc2n1C

>  <TEST TARGET>
Potassium voltage-gated channel subfamily KQT member 2 (Rattus norvegicus)

>  <LABEL>
inactive

$$$$
>  <MOLECULE>
COc1cc(C2NC(=O)NC(O)(C(F)(F)F)C2C(C)=O)cc(OC)c1OC (stereo not drawn)

>  <TEST TARGET>
Potassium voltage-gated channel subfamily KQT member 2 (Rattus norvegicus)

>  <LABEL>
inactive

$$$$
>  <MOLECULE>
O=C(Nc1ccccc1OC(F)F)c1ccc(F)cc1

>  <TEST TARGET>
Potassium voltage-gated channel subfamily KQT member 2 (Rattus norvegicus)

>  <LABEL>
inactive

$$$$
>  <MOLECULE>
CC(=O)OCC(=O)[C@@]1(OC(C)=O)[C@@H](C)C[C@H]2[C@@H]3C[C@H](F)C4=CC(=O)C=C[C@]4(C)[C@@]3(F)[C@@H](O)C[C@@]21C

>  <TEST TARGET>
Potassium voltage-gated channel subfamily KQT member 2 (Rattus norvegicus)

>  <LABEL>
inactive

$$$$

Shift focus to the following entry.
Assay outcome for `CCc1nnc(NC(=O)c2ccc(S(=O)(=O)N(CC)Cc3ccccc3)cc2)o1` : what was it?
active

----------
- Tested on: transient receptor potential cation channel C4 beta (TRPC4), mouse
- ASSAY PROTOCOL: activators of mouse TRPC4 channel, confirmation, cell-based, second round, Fluo4, HEK293 TRPC4beta/mu-opioid, 1 µM (AID 2461)
- ASSAY CONDITIONS: Fluo4 calcium fluorescence, at 1 µM
Calls of active or inactive are those of the source.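 The calls were made as follows: active = primary screen active and over 50% activation in each of two duplicate runs; inactive = the rest.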
Your response should consist of one outcome taken from 1 for active, -1 for inactive

Below, 10 compounds whose answers are already recorded.
>  <COMPOUND>
COc1ccccc1N1CCN(C(c2cccs2)C(C)NC(=O)c2cccs2)CC1 (stereo unspecified)

>  <LABEL>
-1

$$$$
>  <COMPOUND>
CN(C)C(CNc1ncnc2sc3c(c12)CCCC3)c1ccco1 (stereo unspecified)

>  <LABEL>
-1

$$$$
>  <COMPOUND>
CN(C)C(CNC(=O)Cc1cccc(C(F)(F)F)c1)c1ccco1 (stereo unspecified)

>  <LABEL>
-1

$$$$
>  <COMPOUND>
O=C(O)c1ccc(-c2ccc(/C=c3/sc4nc5ccccc5n4c3=O)o2)cc1Cl

>  <LABEL>
-1

$$$$
>  <COMPOUND>
CN(C)C(CNC(=O)c1cc2ccccc2oc1=O)c1ccccc1 (stereo unspecified)

>  <LABEL>
-1

$$$$
>  <COMPOUND>
Cc1cc(Br)ccc1OCCn1ccnc1

>  <LABEL>
-1

$$$$
>  <COMPOUND>
CC1CCCN(CCOCCOc2ccccc2-c2ccccc2)C1 (stereo unspecified)

>  <LABEL>
-1

$$$$
>  <COMPOUND>
Cc1ccc(S(=O)(=O)NCCC(=O)NCC(c2ccco2)N2CCCCC2)cc1C (stereo unspecified)

>  <LABEL>
-1

$$$$
>  <COMPOUND>
CC(C)(C)C(=O)NC(=S)NNC(=O)c1ccc(-c2ccccc2)cc1

>  <LABEL>
1

$$$$
>  <COMPOUND>
O=C(NCCc1cccc(Cl)c1)c1ccc(OC2CCN(Cc3ccccn3)CC2)cc1

>  <LABEL>
-1

$$$$

Shift focus to the following entry.
Assay outcome for `Cc1csc2c(N3CCN(C(=S)Nc4ccc(F)cc4F)CC3)ncnc12` : what was it?
-1

----------
- TEST TARGET: Potassium voltage-gated channel subfamily KQT member 2 (Rattus norvegicus) (UniProt O88943)
- Sequence (O88943 whole entry, looked up): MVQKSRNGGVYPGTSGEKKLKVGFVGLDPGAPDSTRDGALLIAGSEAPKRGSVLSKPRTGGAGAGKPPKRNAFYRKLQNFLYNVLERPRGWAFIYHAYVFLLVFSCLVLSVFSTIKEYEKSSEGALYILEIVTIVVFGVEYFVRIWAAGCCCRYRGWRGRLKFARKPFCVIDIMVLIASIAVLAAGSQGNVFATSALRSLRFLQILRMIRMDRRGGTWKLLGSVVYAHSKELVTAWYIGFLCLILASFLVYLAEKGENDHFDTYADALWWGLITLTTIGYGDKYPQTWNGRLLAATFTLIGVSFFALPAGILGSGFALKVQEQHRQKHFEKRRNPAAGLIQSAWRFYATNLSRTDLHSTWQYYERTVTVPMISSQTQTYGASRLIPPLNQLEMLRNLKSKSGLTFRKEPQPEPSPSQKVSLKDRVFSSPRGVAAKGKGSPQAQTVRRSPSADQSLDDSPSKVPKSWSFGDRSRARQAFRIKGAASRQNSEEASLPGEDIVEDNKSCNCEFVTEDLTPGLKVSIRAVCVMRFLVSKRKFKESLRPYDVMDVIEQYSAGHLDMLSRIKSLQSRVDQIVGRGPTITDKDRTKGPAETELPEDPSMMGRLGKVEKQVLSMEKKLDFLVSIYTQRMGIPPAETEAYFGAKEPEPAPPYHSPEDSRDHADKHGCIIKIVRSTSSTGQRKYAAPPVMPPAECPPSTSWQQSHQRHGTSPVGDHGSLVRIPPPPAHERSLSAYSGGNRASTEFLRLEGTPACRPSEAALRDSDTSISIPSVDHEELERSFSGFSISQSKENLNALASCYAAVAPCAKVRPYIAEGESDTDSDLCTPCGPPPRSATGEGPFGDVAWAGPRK
- ASSAY PROTOCOL: rat KCNQ2 channel potentiation, selectivity assay for KCNQ1 potentiator project, KCNQ2-CHO-K1 cells (AID 493009);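 further: assay conditions were tuned for KCNQ1 rather than KCNQ2 modulators; signal is max minus min fluorescence divided by baseline after thallium stimulus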
- ASSAY CONDITIONS: FluxOR thallium flux fluorescence, at 10 µM, scaled: buffer 0, activator control 100
Activity calls are given as the source filed them.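 How the source made its calls: active means mean duplicate potentiation above the buffer control mean plus 5 SD of buffer wells; inactive means the rest.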
Your response should consist of one outcome taken from class 1 = active, class 0 = inactive

Below, 5 compounds whose answers are already recorded.
>  <COMPOUND>
CC(C)(C)C1(O)CC(C(F)(F)F)=NN1C(=O)Cc1ccc([N+](=O)[O-])cc1 (stereo unspecified)

>  <LABEL>
class 0

$$$$
>  <COMPOUND>
CCCn1c(N)c(C(=O)CSc2nc(C)nc3sc(C)c(C)c23)c(=O)[nH]c1=O

>  <LABEL>
class 1

$$$$
>  <COMPOUND>
Oc1ccc2ccccc2c1N=Nc1nccs1

>  <LABEL>
class 1

$$$$
>  <COMPOUND>
Cn1nc(SCC(=O)O)sc1=S

>  <LABEL>
class 0

$$$$
>  <COMPOUND>
Cn1cc(C(=O)N/N=C/c2ccc([N+](=O)[O-])cc2)c2ccccc21

>  <LABEL>
class 0

$$$$

Shift focus to the following entry.
Assay outcome for `O=c1c2cccnc2[nH]c(=S)n1CCC1=CCCCC1` : what was it?
class 1
